System: OVCAR-3
Test description: NCI tumour cell line growth inhibition, 48 h
Activity calls are given as the source filed them. No stated cut-off is given here; in the data, active = GI50 up to about 1.1 µM and inactive = higher.
We begin with a simple list: items and their reported GI50.
Measure name: GI50

>>> assay_result("Cc1cc(NS(=O)(=O)c2ccc(NC(=O)c3ccc4[nH]c5ccccc5c(=O)c4c3)cc2)no1")
"> 100 µM (inactive)"
>>> assay_result("CCOC(=O)NC(OCCN(C)C)(C(F)(F)F)C(F)(F)F")
"> 100 µM (inactive)"
>>> assay_result("N/C(=N\\O)N/N=C/c1cc(Br)cc(Br)c1O")
"2.37 µM (inactive)"
>>> assay_result("O=C(OCc1ccccc1)N1CCNCCN(C(=O)OCc2ccccc2)CCNCC1")
"35.4 µM (inactive)"
>>> assay_result("CN(C)C(=S)/N=c1\\sn(C)/c(=N\\C(=S)N(C)C)n1C")
"> 100 µM (inactive)"
>>> assay_result("O=C(Cc1nc2ccc(C(=O)c3ccccc3)cc2nc1O)C(=O)Nc1ccccc1[N+](=O)[O-]")
"> 100 µM (inactive)"
>>> assay_result("CC1=C(C(=S)Nc2ccc(Cl)c(C(=O)OC(C)C)c2)SCCO1")
"22.8 µM (inactive)"
>>> assay_result("c1ccc(CCNCc2ccco2)nc1")
"> 100 µM (inactive)"
>>> assay_result("C/C(CC(O)(C(F)(F)F)C(F)(F)F)=N\\NC(N)=S")
"> 10 µM (inactive)"
>>> assay_result("O=c1cc(CBr)c2ccc(O)cc2o1")
"32 µM (inactive)"
>>> assay_result("C=CCN1C(=O)/C(=C/c2ccc(OC)cc2)N=C1SC/C=C/C")
"74.1 µM (inactive)"
>>> assay_result("COc1ccc(OC)c(CCc2cc(OC)c(OC)cc2C)c1")
"3.05 µM (inactive)"
>>> assay_result("CC(=O)Nc1ccc2nc(-c3cccc(F)c3)cc(O)c2c1")
"2.16 µM (inactive)"
>>> assay_result("Oc1nc2c(c(-c3ccc(Br)cc3)n1)COC/C2=C\\c1ccc(Br)cc1")
"> 50 µM (inactive)"
>>> assay_result("Cc1nc2cccc(F)c2c(=O)n1-c1nnc(C(F)(F)F)s1")
"> 10 µM (inactive)"
>>> assay_result("COCOC1/C=C/CCCCC(=O)C(C)C#CC1 (configuration not stated)")
"4.13 µM (inactive)"
>>> assay_result("O=C1C(c2ccccc2)=C(c2ccccc2)C(c2ccc(CCCCCCc3ccc(C4=C(c5ccccc5)C(=O)C(c5ccccc5)=C4c4ccccc4)cc3)cc2)=C1c1ccccc1")
"> 100 µM (inactive)"
>>> assay_result("CC(=O)OCC1OC(SC2=N/C(=C\\c3ccc(Br)s3)C(=O)N2CN2CCOCC2)C(OC(C)=O)C(OC(C)=O)C1OC(C)=O (configuration not stated)")
"> 10 µM (inactive)"
>>> assay_result("Cc1[nH]c2ccccc2c1C1Cc2ccccc2N1C(=O)C#Cc1ccc([N+](=O)[O-])cc1 (configuration not stated)")
"> 100 µM (inactive)"
>>> assay_result("CN1C(=O)C2C(C1=O)C1(O)c3ccccc3C2(N)c2ccccc21 (configuration not stated)")
"> 100 µM (inactive)"
>>> assay_result("CN1C2CC(=O)CC1[C@@H]1OC(c3ccccc3)O[C@H]21 (some centres not stated)")
"> 100 µM (inactive)"
>>> assay_result("O=C1OC2(OC2c2ccccc2)c2ccccc21 (configuration not stated)")
"> 100 µM (inactive)"

Taken from ChEMBL document CHEMBL1201862.
